- ASSAY NAME: soluble on expression in E. coli; label from the status in PepcDB or PDB records
QUANTITY MEASURED: soluble on expression in E. coli

MGSDKIHHHHHHMESKSAVQLYLELLKKTILFEIWLEYEAYLPASLHISKELEFEPVTVPLPLFIKQYAENHNLKIVKPNVSKSERHDGMDWPRAAHSMIGRERMNQLQEAMETVVRENIEGDFIETGVWRGGSCIFMNGFLQANNITDRNVWVADSFEGLPAPNLEQYPKDYGDYLHTFDYLRVSLEQVQENFKKYDLLNDQVKFLKGWFKDTLPTAPIAAIAIARLDGDMYESTMDGLVNLYDKVSKGGYIIIDDYGLPPCAEAVTDFRNHRNLKAPITKIDVFGVYWRKE	not soluble
MGSDKIHHHHHHMKIQSLFFTLYGDYVKDSGGTISSKSLIVIFKEFGFSEGAIRAGLHRMKKAGLIVGIKGENRKVSYKLSEKGMLRLLEGTRRVYEKVRRRWDNKWRIVVYNIPENNRELRDKLRRELKWLGFGMLAQSTWISPNPIEDTLKNFINDHYGSSNGIQVDIFVANYLGEPKGLVEKCWNLSEVEQAYRAFLEKWTGVLEKVSSLKSNEAFVTRILLVHEYRKFLNIDPDLPEDLLPPNWIGYTAYDLFMKLREELTPKANEFFYKVYEP	not soluble
